These entries and their values trace back to ChEMBL document CHEMBL1127493.

System: Enterococcus faecalis
Test: In vitro minimum inhibitory concentration against Enterococcus faecalis ATCC 29212.
Assay type: functional
Listing: MIC of selected compounds
Reply numerically in µg/mL, unit not repeated.

Recorded results for 5 compounds are shown here.
compound | experimental-target | MIC [µg/mL]
CN(C)[C@@H]1C(=O)C(C(N)=O)=C(O)[C@@]2(O)C(=O)C3=C(O)c4c(ccc(NC=O)c4O)CC3CC12.O=S(=O)(O)O (some centres not stated) | Enterococcus faecalis | 0.06
CN(C)c1cc(NC(=O)CN)c(O)c2c1CC1CC3[C@H](N(C)C)C(=O)C(C(N)=O)=C(O)[C@@]3(O)C(=O)C1=C2O.O=C(O)C(F)(F)F (some centres not stated) | Enterococcus faecalis | 0.25
CC(=O)Nc1cc(I)c2c(c1O)C(O)=C1C(=O)[C@]3(O)C(O)=C(C(N)=O)C(=O)[C@@H](N(C)C)C3CC1C2.O=S(=O)(O)O (some centres not stated) | Enterococcus faecalis | 0.25
CCN(CC)c1cc(NC(C)=O)c(O)c2c1CC1CC3[C@H](N(C)C)C(=O)C(C(N)=O)=C(O)[C@@]3(O)C(=O)C1=C2O (some centres not stated) | Enterococcus faecalis | 0.25
CCN(CC)c1cc(NC(=O)CN(C)C)c(O)c2c1CC1CC3[C@H](N(C)C)C(=O)C(C(N)=O)=C(O)[C@@]3(O)C(=O)C1=C2O.Cl (some centres not stated) | Enterococcus faecalis | 0.25

Data request: Can you share its MIC? I mean this compound: CN(C)c1cc(NC=O)c(O)c2c1CC1CC3[C@H](N(C)C)C(=O)C(C(N)=O)=C(O)[C@@]3(O)C(=O)C1=C2O (some centres not stated)
Data returned: 0.03

Data request: Can you share its MIC? I mean this compound: CN(C)CC(=O)Nc1ccc2c(c1O)C(=O)C1=C(O)[C@]3(O)C(O)=C(C(N)=O)C(=O)[C@@H](N(C)C)C3CC1C2.Cl (some centres not stated)
Data returned: 0.03

----------
Tested on: Staphylococcus aureus
Test: In vitro minimum inhibitory concentration against Staphylococcus aureus smith (sensitive).
Type: functional
Listing: MIC of selected compounds
Reply numerically in µg/mL, unit not repeated.

Recorded results for 4 compounds are shown here.
compound | MIC (µg/mL)
CN(C)c1cc(NC(=O)CN)c(O)c2c1CC1CC3[C@H](N(C)C)C(=O)C(C(N)=O)=C(O)[C@@]3(O)C(=O)C1=C2O.O=C(O)C(F)(F)F (some centres undefined) | 1
CC(=O)Nc1ccc2c(c1O)C(O)=C1C(=O)[C@]3(O)C(O)=C(C(N)=O)C(=O)[C@@H](N(C)C)C3CC1C2.O=S(=O)(O)O (some centres undefined) | 0.12
CN(C)[C@@H]1C(=O)C(C(N)=O)=C(O)[C@@]2(O)C(=O)C3=C(O)c4c(ccc(N)c4O)CC3CC12.O=S(=O)(O)O (some centres undefined) | 0.03
CCN(CC)c1cc(NC(C)=O)c(O)c2c1CC1CC3[C@H](N(C)C)C(=O)C(C(N)=O)=C(O)[C@@]3(O)C(=O)C1=C2O (some centres undefined) | 0.12

Data request: Can you share its MIC? I mean this compound: CCN(CC)c1cc(NC=O)c(O)c2c1CC1CC3[C@H](N(C)C)C(=O)C(C(N)=O)=C(O)[C@@]3(O)C(=O)C1=C2O (some centres undefined)
Data returned: 0.03

Data request: Can you share its MIC? I mean this compound: CCN(CC)c1cc(NC(=O)CN(C)C)c(O)c2c1CC1CC3[C@H](N(C)C)C(=O)C(C(N)=O)=C(O)[C@@]3(O)C(=O)C1=C2O.Cl (some centres undefined)
Data returned: 0.5

----------
Tested on: Enterococcus faecalis
Assay: In vitro minimum inhibitory concentration against Enterococcus faecalis ATCC 29212.
Type: functional
endpoint-label: MIC (µg/mL)
Reply numerically in µg/mL, unit not repeated.

Recorded results for 3 compounds are shown here.
compound | experimental-target | number
CN(C)c1cc(N)c(O)c2c1CC1CC3[C@H](N(C)C)C(=O)C(C(N)=O)=C(O)[C@@]3(O)C(=O)C1=C2O.Cl (some centres not stated) | Enterococcus faecalis | 0.25
CN(C)[C@@H]1C(=O)C(C(N)=O)=C(O)[C@@]2(O)C(=O)C3=C(O)c4c(O)c(N)cc(I)c4CC3CC12.O=S(=O)(O)O (some centres not stated) | Enterococcus faecalis | 0.12
CCN(CC)c1cc(N)c(O)c2c1CC1CC3[C@H](N(C)C)C(=O)C(C(N)=O)=C(O)[C@@]3(O)C(=O)C1=C2O.Cl (some centres not stated) | Enterococcus faecalis | 0.12

Data request: Can you share its MIC? I mean this compound: CN(C)CC(=O)Nc1cc(I)c2c(c1O)C(=O)C1=C(O)[C@]3(O)C(O)=C(C(N)=O)C(=O)[C@@H](N(C)C)C3CC1C2.Cl (some centres not stated)
Data returned: 0.06

Data request: Can you share its MIC? I mean this compound: CCN(CC)c1cc(NC=O)c(O)c2c1CC1CC3[C@H](N(C)C)C(=O)C(C(N)=O)=C(O)[C@@]3(O)C(=O)C1=C2O (some centres not stated)
Data returned: 0.06

Data request: Can you share its MIC? I mean this compound: CN(C)[C@@H]1C(=O)C(C(N)=O)=C(O)[C@@]2(O)C(=O)C3=C(O)c4c(O)c(NC=O)cc(I)c4CC3CC12.O=S(=O)(O)O (some centres not stated)
Data returned: 0.25

Data request: Can you share its MIC? I mean this compound: CC(=O)Nc1ccc2c(c1O)C(O)=C1C(=O)[C@]3(O)C(O)=C(C(N)=O)C(=O)[C@@H](N(C)C)C3CC1C2.O=S(=O)(O)O (some centres not stated)
Data returned: 0.25

----------
System: Enterococcus faecalis
Assay: In vitro minimum inhibitory concentration against Enterococcus faecalis ATCC 29212.
Format: functional
endpoint-label: MIC (µg/mL)
Reply numerically in µg/mL, unit not repeated.

compound | endpoint-label | number
CC(=O)Nc1cc(N(C)C)c2c(c1O)C(O)=C1C(=O)[C@]3(O)C(O)=C(C(N)=O)C(=O)[C@@H](N(C)C)C3CC1C2 (stereo partly drawn) | MIC | 0.25
CN(C)[C@@H]1C(=O)C(C(N)=O)=C(O)[C@@]2(O)C(=O)C3=C(O)c4c(ccc(N)c4O)CC3CC12.O=S(=O)(O)O (stereo partly drawn) | MIC | 0.5

Data request: Can you share its MIC? I mean this compound: CN(C)CC(=O)Nc1cc(N(C)C)c2c(c1O)C(=O)C1=C(O)[C@]3(O)C(O)=C(C(N)=O)C(=O)[C@@H](N(C)C)C3CC1C2.Cl (stereo partly drawn)
Data returned: 0.06

----------
Listing: MIC of selected compounds
Test system: Staphylococcus aureus
Experiment: In vitro minimum inhibitory concentration against Staphylococcus aureus UBMS 90-3 (sensitive).
Assay type: functional
Reply numerically in µg/mL, unit not repeated.

compound | MIC [µg/mL]
CN(C)CC(=O)Nc1ccc2c(c1O)C(=O)C1=C(O)[C@]3(O)C(O)=C(C(N)=O)C(=O)[C@@H](N(C)C)C3CC1C2.Cl (some centres undefined) | 0.06
CN(C)CC(=O)Nc1cc(N(C)C)c2c(c1O)C(=O)C1=C(O)[C@]3(O)C(O)=C(C(N)=O)C(=O)[C@@H](N(C)C)C3CC1C2.Cl (some centres undefined) | 0.06
CCN(CC)c1cc(NC=O)c(O)c2c1CC1CC3[C@H](N(C)C)C(=O)C(C(N)=O)=C(O)[C@@]3(O)C(=O)C1=C2O (some centres undefined) | 0.03
CCN(CC)c1cc(N)c(O)c2c1CC1CC3[C@H](N(C)C)C(=O)C(C(N)=O)=C(O)[C@@]3(O)C(=O)C1=C2O.Cl (some centres undefined) | 0.03

Data request: Can you share its MIC? I mean this compound: CN(C)[C@@H]1C(=O)C(C(N)=O)=C(O)[C@@]2(O)C(=O)C3=C(O)c4c(O)c(N)cc(I)c4CC3CC12.O=S(=O)(O)O (some centres undefined)
Data returned: 0.03

Data request: Can you share its MIC? I mean this compound: CN(C)c1cc(N)c(O)c2c1CC1CC3[C@H](N(C)C)C(=O)C(C(N)=O)=C(O)[C@@]3(O)C(=O)C1=C2O.Cl (some centres undefined)
Data returned: 0.06

Data request: Can you share its MIC? I mean this compound: CN(C)CC(=O)Nc1cc(I)c2c(c1O)C(=O)C1=C(O)[C@]3(O)C(O)=C(C(N)=O)C(=O)[C@@H](N(C)C)C3CC1C2.Cl (some centres undefined)
Data returned: 0.12

Data request: Can you share its MIC? I mean this compound: CN(C)c1cc(NC(=O)CN)c(O)c2c1CC1CC3[C@H](N(C)C)C(=O)C(C(N)=O)=C(O)[C@@]3(O)C(=O)C1=C2O.O=C(O)C(F)(F)F (some centres undefined)
Data returned: 0.5

Data request: Can you share its MIC? I mean this compound: CC(=O)Nc1cc(I)c2c(c1O)C(O)=C1C(=O)[C@]3(O)C(O)=C(C(N)=O)C(=O)[C@@H](N(C)C)C3CC1C2.O=S(=O)(O)O (some centres undefined)
Data returned: 0.12

Data request: Can you share its MIC? I mean this compound: CN(C)c1cc(NC=O)c(O)c2c1CC1CC3[C@H](N(C)C)C(=O)C(C(N)=O)=C(O)[C@@]3(O)C(=O)C1=C2O (some centres undefined)
Data returned: 0.03

Data request: Can you share its MIC? I mean this compound: `CN(C)c1ccc(O)c2c1C[C@H]1C[C@H]3[C@H](N(C)C)C(O)=C(C(N)=O)C(=O)[C@@]3(O)C(O)=C1C2=O`
Data returned: 0.12

Data request: Can you share its MIC? I mean this compound: CCN(CC)c1cc(NC(=O)CN(C)C)c(O)c2c1CC1CC3[C@H](N(C)C)C(=O)C(C(N)=O)=C(O)[C@@]3(O)C(=O)C1=C2O.Cl (some centres undefined)
Data returned: 0.5
